This collection of values is drawn from patent US20230227537A1.

Quick reference: % inhibition of the listed items.
TESTED TARGET: SARS-CoV-2 RBD protein Avi-tag biotinylated (AcroBiosystems SPD-C82E9) (SARS-CoV-2, UniProt P0DTC2 330-518)
PROTOCOL NOTES: competition AlphaLISA; competitor human ACE2-mFc; further: test concentration or dose not given here
METRIC: % inhibition (%)

INSERT INTO assay_data (binder, metric, output_unit, observed_result) VALUES
  ('VHH3.77 (VHH) VHH: QVQLQESGGGLVQAGGSLRLSCVSSGRAFGNGAVGWFRQGPGRPREFVATVSWNGGGTYFAESVRGRFTISRDNAKNTVYLQMNNLKPEDTAVYYCALAGEGTVVSEWDYDYEYWGQGTQVTVSS', '% inhibition', '%', 97),
  ('VHH2.50 (VHH) VHH: QVQLQESGGGLVQAGGSLRLSCAASGRTFSSIAMGWFRQAPGKEREFVATISWSGGSTYYADSVKGRFTISRDNAKNTVYLQMNSLKPEDTAVYYCAAAGLGTVVSEWDYDYDYWGQGTQVTVSS', '% inhibition', '%', 79),
  ('VHH3.17 (VHH) VHH: QVQLQESGGGLVEAGGSLTLSCAASGRAFGDGAVGWFRQGPGRPREFVATVSWNGGGTYFAESVRGRFTISRDNAKNTVYLQMNNLKPEDTAVYYCALAGEGTVVSEWDYDYEYWGQGTQVTVSS', '% inhibition', '%', 99),
  ('SARS VHH-72 (VHH) VHH: QVQLQESGGGLVQAGGSLRLSCAASGRTFSEYAMGWFRQAPGKEREFVATISWSGGSTYYTDSVKGRFTISRDNAKNTVYLQMNSLKPDDTAVYYCAAAGLGTVVSEWDYDYDYWGQGTQVTVSS', '% inhibition', '%', 97),
  ('VHH3.29 (VHH) VHH: QVQLQESGGGLVQAGGSLRLSCVASGRTFSSGGMGWFRQAPGQEREFVAGIGWAGLSSYYLDSVKGRFTISLDNAKNTVYLQMNMLKPEDTGVYYCAADDHGWSAAGMDYLGQGTQVTVSS', '% inhibition', '%', 97),
  ('VHH3.115 (VHH) VHH: QVQLQESGGGLVQTGGSLRLSCAASGLTFSDIAMGWFRQAPGREREFVATISWSGGGTYYAEPVRGRFAISRDNAKNTVYLQMNSLKPEDTAVYYCAAAGAGTVVSEWDYDYDYWGQGTQVTVSS', '% inhibition', '%', 100),
  ('VHH3.36 (VHH) VHH: QVQLQESGGGLVQAGDSLRLSCVVSGGTFSSYAMGWFRQAPGKERELVAAINWGGISVYYADSVKGRFTISRDNAENTVYLQMNSLKPEDTAVYYCAADPKGWSEWDMEYWGKGTQVTVSS', '% inhibition', '%', 100);
